Examples of molecules with documented MIC follow.
tested on: Klebsiella pneumoniae ATCC 10031; assay: microbe, parasite or virus in culture; type: cell-based; settings: ATCC10031, pH 7, read-out: minimum inhibitory concentration, KP
metric_name: MIC (µg/mL)

INSERT INTO results (structure_smiles_string, subject_of_test, unit_name, recorded_result) VALUES
  ('CO[C@@]12[C@H](COC(N)=O)C3=C(C(=O)C(C)=C(NCCSSCCCNC(=O)CC[C@H](N)C(=O)O)C3=O)N1C[C@@H]1N[C@@H]12', 'Klebsiella pneumoniae ATCC 10031', 'µg/mL', 0.8),
  ('CO[C@@]12[C@H](COC(N)=O)C3=C(C(=O)C(C)=C(NCCSSCCNC(=O)CC[C@H](N)C(=O)O)C3=O)N1C[C@@H]1N[C@@H]12', 'Klebsiella pneumoniae ATCC 10031', 'µg/mL', 0.4),
  ('CO[C@@]12[C@H](COC(N)=O)C3=C(C(=O)C(C)=C(NCCSSCCNC(=O)/C=C(C)/C=C/C=C(C)/C=C/C4=C(C)CCCC4(C)C)C3=O)N1C[C@@H]1N[C@@H]12', 'Klebsiella pneumoniae ATCC 10031', 'µg/mL', 2.5);
